Test system: MS2 coat protein
measurement protocol: apparent KD of MS2 coat protein; higher = weaker reporter binding
condition notes: Eterna round: R107; input ligand: theophylline 2 mM
// values below are reported apparent KD of MS2 coat protein
Give your result in µM as a bare value.

Reference set, count: 4
sequence entry: AUCUAUAGAGCGGCCGCCACUGAAUACAUGAGGAUCACCCAUGUAAUGUUAAGGUGGUCCUAGCUCAGGACCGGGCUCUAUAGAU [Tryp B Ex t4]
measurement label: apparent KD of MS2 coat protein
measured result: 0.0533

sequence entry: AGCGGCUCGAAAGAGUCGCACUCAUGUGAAGGAGCGCGCGUAAGCGCAGGUAGGUCGCACAUGAGGAUCACCCAUGUACCUUCUA [MAT - Exclusion Arginine A - Mod of Eli - D21]
measurement label: apparent KD of MS2 coat protein
measured result: 0.262

sequence entry: AUAUAUGACAGAAGGAGCGCCAUGAACACACAUGAGGAUCACCCAUGUUUUUUUUGUGUUUGGCAGGUAGGUCGCUGACAUGAAA [Same State Arginine B 3]
measurement label: apparent KD of MS2 coat protein
measured result: 0.0116

sequence entry: AGCACUGUGACGGCCGCCACUACAUAAUAGGGUGGUCAGGUUCAUAUACAUGAGGAUCACCCAUGUAGGACCGGGUCUCAGUGCA [Omei Trp Exc B A v6]
measurement label: apparent KD of MS2 coat protein
measured result: 0.0122

Exercise: Recorded apparent KD of MS2 coat protein for CAUAUAUAUUGAAGGAGCGACAUGAGGAUCACCCAUGUCUACCACGUCGAAAGACGCUCAUGUCAGGUAGGUCGCAAUAUAUAUG [Astros-Eli-mod5] , please?
Key: 0.144

====

Tested on: MS2 coat protein
measurement protocol: apparent KD of MS2 coat protein; designed switch direction (-1 OFF switch, 1 ON switch): -1; higher = weaker reporter binding
condition notes: input ligand: none
// values below are reported apparent KD of MS2 coat protein
Give your result in nM as a bare value.

sequence entry: UGUAACCUAGGAUAUACAUGAGGAUCACCCAUGUAAUGUAGUAUAGUGUGUGUGAGGUGUAGAAGGUGGGAUGU (Eterna round: R97, puzzle: Exclusion 3)
value units: nM
measured result: 60.2
--
sequence entry: ACCAUGUAAGGAUAUCUCGUACAAAGACGCAACUCGUCCAGAGAGAAGGUACAUGAGGAUCACCCAUGUAGACA [Eternabot (Original) Solution 39] (Eterna round: R97, puzzle: Exclusion 4)
value units: nM
measured result: 33.5
--
sequence entry: UUUAUAUAGUAAGGAUAUGUAUUAAUUUUAUCAACAGAAGGUACUGACAUGAGGAUCACCCAUGUUUUAGUGUGGGCAUGUAGU [JMF's solution 93] (Eterna round: R96, puzzle: Exclusion NG 1)
value units: nM
measured result: 536
--
sequence entry: AUCAGCUCGUGAGGAUAUGCACAUGAGGAUCACCCAUGUAAGAUCAAGCUGCUUCGGCAGCAAGUGCAGAAGGUACGAGCUGAU [ENG2/9-C2] (Eterna round: R96, puzzle: Exclusion NG 2)
value units: nM
measured result: 234

Switching to the query record.
Exercise: For MS2 coat protein, provide apparent KD of MS2 coat protein of ACAAGCUUUUGCUCGUCUUACAUGAGGAUCACCCAUGUCGGGAACAUGCAUACAUACAACAUAUAAACAGUAACAGA [high energy, high % A (36%)] (Eterna round: R97, puzzle: Sensor, turn-off variant 1) please.
Key: 21.2

====

// values below are reported apparent KD of MS2 coat protein
Tested on: MS2 coat protein
measurement protocol: apparent KD of MS2 coat protein; higher = weaker reporter binding
condition notes: Eterna round: R107; input ligand: arginine 13.2 mM
Give your result in nM as a bare value.

sequence entry: UGUGACAUGAGGAUCACCCAUGUAAGGGAAGGAGCGCCGAAUAAGGCAGGUAGGUCGCCCAAGAUAGAAGAAUAAUAAGAUUGUG [Arginine A Same State; Euphoria Solution]
test system: MS2 coat protein
value units: nM
measured result: 20.8

Switching to the query record.
Exercise: For MS2 coat protein, provide apparent KD of MS2 coat protein of CGGACAUGAGGAUCACCCAUGUACACUGAAGGAGCGUCGAGAACGACAGGUAGGUCGCAGGCUAAGGAAGGUGAUGCUCAAGAAG [Exclusion Arginine A GF5] please.
Key: 37.8

====

System: MS2 coat protein
measurement protocol: apparent KD of MS2 coat protein; higher = weaker reporter binding
condition notes: Eterna round: R107; input ligand: tryptophan 2.4 mM
measurement label: apparent KD of MS2 coat protein
Quote the value and follow it with the unit of measurement.

Reference set, count: 3
sequence entry: AACAUGAGGAUCACCCAUGUCGGGCCGGAGCGAGGACCGGUACGGCCGCCACUCGAGACAUGAGGAUCACCCAUGUAGGGCGAAA [Exclusion Tryptophan A GF21]
apparent KD of MS2 coat protein: 0.186 µM
//
sequence entry: UCAUUUGAGUGAGAUGUAAGGUAUCAUGAUACCAGUAGAUAAUUAUACCCUUGGCAGCAUGACAUGAGGAUCACCCAUGUACAUG [Ad]
apparent KD of MS2 coat protein: 0.0123 µM
//
sequence entry: ACAUGAGGAUCACCCAUGUGAAGGCACGAUACCAGCUGAUCCCGUGGCCCUUGGCAGCGUCACGUUUGGUCCCGCGGAUGAGACG [crcmullin]
apparent KD of MS2 coat protein: 0.0138 µM

Exercise: Recorded apparent KD of MS2 coat protein for GGGACACCGAGAAGGAGCGCAUCCAAACCACACAUGAGGAUCACCCAUGUAUAAAUAUGCAUGCAGGUAGGUCGCUCGGCGUCUC [Orordionbi] , please?
Key: 0.111 µM

Exercise: Recorded apparent KD of MS2 coat protein for AGUCUUAGUGGAAGGAGCGCAGUCAUAACAUGAGGAUCACCCAUGUCGAGGUGAGGGUCAUUGCAGGUAGGUCGCCAUAAUAGGA [#16 Same State - Arginine B] , please?
Key: 0.369 µM

Exercise: Recorded apparent KD of MS2 coat protein for UGUAUGUGAUCUGAUACCAGUCCCUUGGCAGCAACAUGAGGAUCACCCAUGUAGAUACCAGACCCUUGGCAGCAGAUCGCAUACU [#DoubleAptamer 1] , please?
Key: 0.0082 µM

====

Tested on: MS2 coat protein
measurement protocol: apparent KD of MS2 coat protein; designed switch direction (-1 OFF switch, 1 ON switch): -1; higher = weaker reporter binding
condition notes: input ligand: none
measurement label: apparent KD of MS2 coat protein (nM)
Give your result in nM as a bare value.

Reference set, count: 2
sequence entry: ACAUGAGGAUCACCCAUGUCCGGUUGGUUUUCUCCGGCUGUUGAGGAUAUAGUCCGGUAUCCGCGCUAGAAGGUGAGGGUUGGC [Aenatbe mod 12] (Eterna round: R96, puzzle: Exclusion NG 3)
test system: MS2 coat protein
value units: nM
apparent KD of MS2 coat protein: 165

sequence entry: GCGGAGUAUGUAGGAUAUCGGUCAGUUUCUGAUCGAGAAGGACAUGAGGAUCACCCAUGUAAAUUGCCCGCUUUGUGGGUCCGC [JL ENG1 3.61] (Eterna round: R96, puzzle: Exclusion NG 1)
test system: MS2 coat protein
value units: nM
apparent KD of MS2 coat protein: 17.8

Switching to the query record.
Exercise: Recorded apparent KD of MS2 coat protein for CAAGCUAUUGUAGCAACUAACAUGAGGAUCACCCAUGUAGGCAUAACUUACCUAGCUCGUUUAUACAAAUCAAUUGU [Eternabot (L2) Solution 11] (Eterna round: R97, puzzle: Sensor, turn-off variant 1) , please?
Key: 17.6

====

// values below are reported apparent KD of K4 kissing-loop reporter
Tested on: K4 kissing-loop RNA reporter
measurement protocol: apparent KD of K4 kissing-loop reporter; higher = weaker reporter binding
condition notes: Eterna round: R107; input ligand: tryptophan 2.4 mM
Give your result in nM as a bare value.

Reference set, count: 3
sequence entry: UAAUAUAACCGAAGGAGCGCGUGGGCGCAGUGAUGUUGCGCCCGACAUCACUUCAACUAAACGCAGGUAGGUCGCGGUAAUAAUA [Arginine B (Excl) V1]
test system: K4 kissing-loop RNA reporter
value units: nM
measured result: 98.4
//
sequence entry: GUUUCUUGGAAACAAGGACCGCUAACCGAAGGAGCGAGUGAAAACUCAGGUAGGUCGCGGUAGCGGAGUGAUGUUCCGCGUUUAC [Excluson Arginine A GF 15]
test system: K4 kissing-loop RNA reporter
value units: nM
measured result: 99.8
//
sequence entry: GGCAUGCAUGGAAACAUGCAUGCCAUGCCUCGAGGACCGGUACGGCCGCCACUCGUUAAAAGAAAUGCCAGUGAUGUUGGCCGAA
test system: K4 kissing-loop RNA reporter;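 further: bound reporter read as fluorescence of individual clusters on recovered sequencing chips by microscopy, with normalized cluster intensities fitted with a binding model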
value units: nM
measured result: 175

Switching to the query record.
Exercise: Recorded apparent KD of K4 kissing-loop reporter for GGGCCUCUGGCUGAUACCAGUGAUAAAGGGUAAGAGACAGGGAGUGAUGUUCCCUUUAGCCACCCUUGGCAGCAGUUUAAGUUUG [Exclusion Theophylline B GF 18] , please?
Key: 77.3
